Measured inhibition values are reported for all entries that follow.
molecular target: Matrix metalloproteinase-9 (Homo sapiens); details: at 1 mM;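 also: recombinant human MMP9, activity read after 30 min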
Field: numeric (%). Do not append units.

c1ccc(CNCc2ccccn2)nc1 ... 84
Nc1cccc(C(=O)O)c1O ... 59
COc1ccccc1O ... -6
Nc1ccc(C(=O)O)c(O)c1 ... 24
CS(=O)(=O)Nc1cccc2cccnc12 ... 59

# context switch: different compound, same inhibition
Ask | Requested read-out: inhibition. Entry: O=C(O)c1ccc2cccc(O)c2n1
Reply | 68

* * *

# inhibition annotations
target: UniProtKB P08253; settings: at 1 mM
Sequence (P08253 110-660 limits assumed): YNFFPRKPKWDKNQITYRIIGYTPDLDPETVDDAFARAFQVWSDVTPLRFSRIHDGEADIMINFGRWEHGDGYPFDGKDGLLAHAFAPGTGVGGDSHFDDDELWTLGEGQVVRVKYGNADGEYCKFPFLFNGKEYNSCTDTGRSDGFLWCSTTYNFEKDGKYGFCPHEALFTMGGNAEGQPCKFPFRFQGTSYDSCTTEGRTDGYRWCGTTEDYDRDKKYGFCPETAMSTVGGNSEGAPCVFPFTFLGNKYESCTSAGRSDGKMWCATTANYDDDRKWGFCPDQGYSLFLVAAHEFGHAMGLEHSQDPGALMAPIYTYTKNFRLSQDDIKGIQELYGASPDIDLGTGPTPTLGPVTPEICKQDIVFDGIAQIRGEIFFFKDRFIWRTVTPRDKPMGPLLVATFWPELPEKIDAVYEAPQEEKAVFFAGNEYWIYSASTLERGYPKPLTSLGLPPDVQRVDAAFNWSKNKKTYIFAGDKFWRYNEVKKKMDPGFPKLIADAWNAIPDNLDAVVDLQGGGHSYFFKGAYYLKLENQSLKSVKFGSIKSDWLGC

Consider the worked cases shown below.
c1ccc(CNCc2ccccn2)nc1 ... 100%
CCc1occc(=O)c1O ... 33%
Cc1cc(O)nc(C)n1 ... 2%
CCc1c(O)c(=O)ccn1C ... 32%
Cc1occ(O)c(=O)c1C(=O)O ... 56%
Oc1ccccc1-c1nc2ccccc2o1 ... 1%
CC(=O)C1CCCC1=O (configuration not stated) ... 20%
c1cnc2c(c1)ccc1cccnc12 ... 100%

Ask | Could you share what inhibition was measured for COc1ccccc1O , tested on UniProtKB P08253?
Reply | -5%

Ask | Please state recorded inhibition (tested on UniProtKB P08253) of Oc1cc(O)nc(S)n1
Reply | 17%

Ask | What value of inhibition on UniProtKB P08253 does O=c1ccc2ccccc2[nH]1 have?
Reply | 5%

Ask | Form field: inhibition recorded for CCc1c(O)c(=S)ccn1CC with UniProtKB P08253 (enter value)
Reply | 100%

Ask | Kindly state the measured inhibition obtained for O=C(O)c1ccccc1O with UniProtKB P08253.
Reply | 12%

Ask | # returns recorded inhibition (system: UniProtKB P08253) for CCn1ccc(=S)c(O)c1C
Reply | 100%

Ask | UniProtKB P08253 / inhibition / COc1ccccc1S : value?
Reply | 3%

Ask | API: value(readout=inhibition, system=UniProtKB P08253) for record O=C(O)c1ccc[nH]1
Reply | 1%

Ask | Look up inhibition with UniProtKB P08253 for this compound: Cc1ccc(O)c(C(=O)O)c1
Reply | 65%

Data credit: ChEMBL document CHEMBL1649420
